Source: patent US10213416B2

Target: human (hAC) acid ceramidase (Homo sapiens (Human), UniProt Q13510)
Sequence (Q13510 143-395): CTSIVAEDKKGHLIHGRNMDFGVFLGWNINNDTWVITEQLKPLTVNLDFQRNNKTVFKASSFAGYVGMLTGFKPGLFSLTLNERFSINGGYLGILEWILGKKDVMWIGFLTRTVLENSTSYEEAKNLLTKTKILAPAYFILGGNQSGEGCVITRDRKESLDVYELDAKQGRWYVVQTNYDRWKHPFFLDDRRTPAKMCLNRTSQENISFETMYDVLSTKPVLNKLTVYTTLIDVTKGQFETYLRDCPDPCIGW
Sequence (Q13510 22-142): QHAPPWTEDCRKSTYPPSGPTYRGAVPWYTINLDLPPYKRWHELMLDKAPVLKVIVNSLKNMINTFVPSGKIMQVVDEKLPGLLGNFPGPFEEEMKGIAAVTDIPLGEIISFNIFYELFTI
Experiment: Fluorescent-based in vitro assay of acid ceramidase inhibition
Format: biochemical
Details: human acid ceramidase-enriched lysosomal lysate from HEK293 cells, fluorogenic probe 5 μM, pH 4.5
Text: To evaluate the potency of the compounds towards acid ceramidase, a fluorescence-based in vitro assay previously described in literature (Bedia C et al., ChemBioChem, 2007, 8, 642-648) was implemented and optimized. […] By quantifying the generation of umbelliferone using a fluorescence plate-reader, the level of enzymatic activity can be measured, whereby IC50 values of compounds that inhibit this activity can be generated. […]
reportedEndpoint: IC50 (nM)

[1] O=C(NCCCCCCc1ccccc1)n1c(=O)oc2c(-c3ccc(F)cc3)cccc21
[2] O=C(c1ccc(F)cc1)c1cccc2c1oc(=O)n2C(=O)NCCCCCc1ccccc1
[3] O=C(NCCCCCc1ccccc1)n1c(=O)oc2c(-c3ccc(F)cc3)cc(Cl)cc21
## Input Rank the items above by IC50, largest value first. Rank them, then answer with their labels in that order.
## Output 1, 2, 3
(1: 125 nM, 2: 66 nM, 3: 37 nM)

[A] O=C(NCCCCCCc1ccccc1)n1c(=O)oc2ccc(-c3ccc(C(F)(F)F)cc3)cc21
[B] O=C(NCCCCCc1ccccc1)n1c(=O)oc2cc(-c3ccc(F)cc3)ccc21
[C] COc1ccc(C(=O)c2ccc3c(c2)oc(=O)n3C(=O)NCCCCCc2ccccc2)cc1
## Input rank_up(items): orders items by reported IC50 in ascending numerical order. Rank them, then answer with their labels in that order.
## Output C, B, A
(C: 26 nM, B: 75 nM, A: 111 nM)

[I] O=C(NCCCCSc1ccccc1)n1c(=O)oc2ccc(-c3ccc(F)cc3)cc21
[II] COc1ccc(C(=O)c2ccc3oc(=O)n(C(=O)NCCCCCCc4ccccc4)c3c2)cc1
[III] CCCCOCCCNC(=O)n1c(=O)oc2cc(-c3ccc(F)cc3)ccc21
## Input Sequence the entries by IC50, beginning with the highest number. Rank them, then answer with their labels in that order.
## Output I, III, II
